- assayed-target: scHGF β (Homo sapiens, UniProt P14210, R494E)
- Construct: the scHGF β-chain (residues Asn^479 to Ser^728) contains the R494E mutation; His-tag (C)
- Sequence (P14210 479-728 R494E): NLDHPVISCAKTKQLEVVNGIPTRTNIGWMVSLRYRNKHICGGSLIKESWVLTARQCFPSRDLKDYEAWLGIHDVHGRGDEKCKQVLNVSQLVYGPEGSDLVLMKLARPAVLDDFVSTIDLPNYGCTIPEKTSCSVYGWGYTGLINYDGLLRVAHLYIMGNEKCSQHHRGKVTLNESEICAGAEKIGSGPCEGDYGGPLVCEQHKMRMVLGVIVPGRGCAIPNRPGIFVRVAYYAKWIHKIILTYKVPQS
- Sequence (P08581 27-515 partner limits assumed): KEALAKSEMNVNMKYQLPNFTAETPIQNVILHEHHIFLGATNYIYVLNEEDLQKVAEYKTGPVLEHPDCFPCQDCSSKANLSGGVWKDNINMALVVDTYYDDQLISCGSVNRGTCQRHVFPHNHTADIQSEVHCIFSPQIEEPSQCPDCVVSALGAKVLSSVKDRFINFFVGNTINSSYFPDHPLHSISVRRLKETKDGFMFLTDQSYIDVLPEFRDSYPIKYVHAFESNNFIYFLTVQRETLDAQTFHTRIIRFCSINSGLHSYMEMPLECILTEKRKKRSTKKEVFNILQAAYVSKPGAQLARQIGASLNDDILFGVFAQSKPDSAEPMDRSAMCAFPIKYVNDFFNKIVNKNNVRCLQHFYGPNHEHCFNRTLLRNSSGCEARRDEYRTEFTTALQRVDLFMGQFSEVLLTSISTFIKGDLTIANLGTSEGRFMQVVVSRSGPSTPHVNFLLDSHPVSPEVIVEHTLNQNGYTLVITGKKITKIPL
- measurement-notes: scHGF β activation/Met binding assay (biolayer interferometry)
- settings: peptide titration with 0.5 μM scHGF β, biotinylated Met ECD on sensor; ±stdev of n=3
Where a SMILES comes first, the peptide text is derived from it. Bridges are numbered along the chain shown (N, C = ends).
Listed compounds paired with reported Kd

compound	assayed-target	Kd / µM
CC[C@H](C)[C@H](N)C(=O)N[C@H](C(=O)NCC(=O)NCC(=O)N[C@@H](CC(=O)O)C(=O)N1CCC[C@H]1C(=O)N[C@@H](Cc1ccc(O)cc1)C(=O)N[C@@H](Cc1c[nH]c2ccccc12)C(=O)N[C@H](C(=O)N1CCC[C@H]1C(=O)N[C@@H](Cc1c[nH]cn1)C(=O)N1CCC[C@H]1C(=O)NCC(=O)N[C@@H](CC(=O)O)C(=O)N[C@@H](C)C(N)=O)C(C)C)[C@@H](C)CC [ZAP.01, I I G G D P Y W V P H P G D A] (H-IIGGDPYWVPHPGDA-NH2; N-terminus assumed)	scHGF β (Homo sapiens, UniProt P14210, R494E)	6
CC[C@H](C)[C@H](N)C(=O)N[C@H](C(=O)NCC(=O)NCC(=O)N[C@@H](CO)C(=O)N1CCC[C@H]1C(=O)N[C@@H](Cc1ccc(O)cc1)C(=O)N[C@@H](Cc1c[nH]c2ccccc12)C(=O)N[C@@H](CCSC)C(=O)N[C@@H](CC(=O)O)C(=O)N[C@@H](CCCNC(=N)N)C(=O)N[C@@H](CCC(=O)O)C(=O)N[C@@H](CCC(=O)O)C(=O)N[C@@H](CO)C(=O)N[C@H](C(N)=O)[C@@H](C)CC)[C@@H](C)CC [ZAP.03S, I I G G S P Y W M D R E E S I] (H-IIGGSPYWMDREESI-NH2; N-terminus assumed)	scHGF β (Homo sapiens, UniProt P14210, R494E)	59
CC[C@H](C)[C@H](N)C(=O)N[C@H](C(=O)NCC(=O)NCC(=O)N[C@H]1CSSC[C@@H](C(=O)N[C@H](C(N)=O)[C@@H](C)CC)NC(=O)[C@H](CCC(=O)O)NC(=O)[C@H](CCC(=O)O)NC(=O)[C@H](CCCNC(=N)N)NC(=O)[C@H](CC(=O)O)NC(=O)[C@H](CCSC)NC(=O)[C@H](Cc2c[nH]c3ccccc23)NC(=O)[C@H](Cc2ccc(O)cc2)NC(=O)[C@@H]2CCCN2C1=O)[C@@H](C)CC [ZAP.03] (H-IIGGCPYWMDREECI-NH2; disulfide 5-14)	scHGF β (Homo sapiens, UniProt P14210, R494E)	0.3
CC[C@H](C)[C@H](N)C(=O)N[C@H](C(=O)NCC(=O)NCC(=O)N[C@@H](Cc1ccc(O)cc1)C(=O)N1CCC[C@H]1C(=O)N[C@@H](Cc1c[nH]c2ccccc12)C(=O)N[C@@H](Cc1c[nH]c2ccccc12)C(=O)N[C@@H](CCSC)C(=O)N[C@@H](CC(=O)O)C(=O)N[C@H](C(N)=O)C(C)C)C(C)C [IVGG.14, I V G G Y P W W M D V] (H-IVGGYPWWMDV-NH2)	scHGF β (Homo sapiens, UniProt P14210, R494E)	34
